# Species: Rattus norvegicus
# RUN DESCRIPTION: Open TG-GATES - Regimen: Single
# Format: toxicity, organism-based, Sprague-Dawley
# Parameters: regimen Single, gender Male, age 6 weeks
# PROTOCOL CONDITIONS: in vivo, po, 0 mg/kg, 9 h, tissue Blood, route gavage, dose level Control
APTT by entry:
EXPERIMENTAL READOUT: APTT (s)

>  <COMPOUND>
COC(=O)C1=C(C)NC(C)=C(C(=O)OC)C1c1ccccc1[N+](=O)[O-]

>  <TEST VALUE>
16

$$$$
>  <COMPOUND>
CCOc1ccc(NC(C)=O)cc1

>  <TEST VALUE>
17.7

$$$$
>  <COMPOUND>
O=C(OC[C@H]1O[C@@H](OC(=O)c2cc(O)c(O)c(OC(=O)c3cc(O)c(O)c(O)c3)c2)[C@H](OC(=O)c2cc(O)c(O)c(OC(=O)c3cc(O)c(O)c(O)c3)c2)[C@@H](OC(=O)c2cc(O)c(O)c(OC(=O)c3cc(O)c(O)c(O)c3)c2)[C@@H]1OC(=O)c1cc(O)c(O)c(OC(=O)c2cc(O)c(O)c(O)c2)c1)c1cc(O)c(O)c(OC(=O)c2cc(O)c(O)c(O)c2)c1

>  <TEST VALUE>
16.7

$$$$
>  <COMPOUND>
CN1C(=O)CCS(=O)(=O)C1c1ccc(Cl)cc1 (centres undefined)

>  <TEST VALUE>
15.1

$$$$
>  <COMPOUND>
NC1=NC(=O)C(c2ccccc2)O1 (centres undefined)

>  <TEST VALUE>
17.2

$$$$
>  <COMPOUND>
CNC(=C[N+](=O)[O-])NCCSCc1ccc(CN(C)C)o1

>  <TEST VALUE>
20.2

$$$$
>  <COMPOUND>
CC(C)NNC(=O)c1ccncc1

>  <TEST VALUE>
22.6

$$$$
>  <COMPOUND>
CN(C)CCC(c1ccc(Cl)cc1)c1ccccn1 (centres undefined)

>  <TEST VALUE>
19.1

$$$$
>  <COMPOUND>
Nc1c2c(nc3ccccc13)CCCC2

>  <TEST VALUE>
19.8

$$$$

###

ALT by entry:
# Organism: Rattus norvegicus
# RUN DESCRIPTION: Open TG-GATES - Regimen: Daily Repeat
# Format: toxicity, organism-based, Sprague-Dawley
# Design: regimen Daily Repeat, gender Male, age 6 weeks
# PROTOCOL CONDITIONS: in vivo, po, 0 mg/kg, […], tissue Plasma, route gavage, dose level Control, time 7 day

>  <COMPOUND>
NC1=NC(=O)C(c2ccccc2)O1 (stereo not drawn)

>  <ALT / IU/L>
41.4

$$$$
>  <COMPOUND>
CN/C(=N/CCSCc1nc[nH]c1C)NC#N

>  <ALT / IU/L>
33.2

$$$$
>  <COMPOUND>
CC(C)NNC(=O)c1ccncc1

>  <ALT / IU/L>
46.6

$$$$
>  <COMPOUND>
CN1C(=O)CCS(=O)(=O)C1c1ccc(Cl)cc1 (stereo not drawn)

>  <ALT / IU/L>
44

$$$$
>  <COMPOUND>
O=C(OC[C@H]1O[C@@H](OC(=O)c2cc(O)c(O)c(OC(=O)c3cc(O)c(O)c(O)c3)c2)[C@H](OC(=O)c2cc(O)c(O)c(OC(=O)c3cc(O)c(O)c(O)c3)c2)[C@@H](OC(=O)c2cc(O)c(O)c(OC(=O)c3cc(O)c(O)c(O)c3)c2)[C@@H]1OC(=O)c1cc(O)c(O)c(OC(=O)c2cc(O)c(O)c(O)c2)c1)c1cc(O)c(O)c(OC(=O)c2cc(O)c(O)c(O)c2)c1

>  <ALT / IU/L>
34.4

$$$$
>  <COMPOUND>
CN(C)CCC(c1ccc(Cl)cc1)c1ccccn1 (stereo not drawn)

>  <ALT / IU/L>
43.2

$$$$
>  <COMPOUND>
Brc1ccccc1

>  <ALT / IU/L>
51

$$$$
>  <COMPOUND>
CCOc1ccc(NC(C)=O)cc1

>  <ALT / IU/L>
33.4

$$$$

###

# Organism: Rattus norvegicus
# RUN DESCRIPTION: Open TG-GATES - Regimen: Single
# Format: toxicity, organism-based, Sprague-Dawley
# Set-up: regimen Single, gender Male, age 6 weeks
# PROTOCOL CONDITIONS: in vivo, po, 1000 mg/kg, 24 h, tissue Liver, route gavage, dose level High
EXPERIMENTAL READOUT: LIVER

>  <CPD SMILES>
O=C(OC[C@H]1O[C@@H](OC(=O)c2cc(O)c(O)c(OC(=O)c3cc(O)c(O)c(O)c3)c2)[C@H](OC(=O)c2cc(O)c(O)c(OC(=O)c3cc(O)c(O)c(O)c3)c2)[C@@H](OC(=O)c2cc(O)c(O)c(OC(=O)c3cc(O)c(O)c(O)c3)c2)[C@@H]1OC(=O)c1cc(O)c(O)c(OC(=O)c2cc(O)c(O)c(O)c2)c1)c1cc(O)c(O)c(OC(=O)c2cc(O)c(O)c(O)c2)c1

>  <EXPERIMENTAL READOUT>
LIVER

>  <TEST VALUE>
9.2 g

$$$$
>  <CPD SMILES>
COC(=O)C1=C(C)NC(C)=C(C(=O)OC)C1c1ccccc1[N+](=O)[O-]

>  <EXPERIMENTAL READOUT>
LIVER

>  <TEST VALUE>
6.9 g

$$$$
>  <CPD SMILES>
CN/C(=N/CCSCc1nc[nH]c1C)NC#N

>  <EXPERIMENTAL READOUT>
LIVER

>  <TEST VALUE>
10.6 g

$$$$
>  <CPD SMILES>
CNC(=C[N+](=O)[O-])NCCSCc1ccc(CN(C)C)o1

>  <EXPERIMENTAL READOUT>
LIVER

>  <TEST VALUE>
10.7 g

$$$$
>  <CPD SMILES>
Cc1nnc2n1-c1ccc(Cl)cc1C(c1ccccc1Cl)=NC2

>  <EXPERIMENTAL READOUT>
LIVER

>  <TEST VALUE>
9.9 g

$$$$

###

WBC by entry:
# Species on record: Rattus norvegicus
# RUN DESCRIPTION: Open TG-GATES - Regimen: Single
# Assay type: toxicity, organism-based, Sprague-Dawley
# Parameters: regimen Single, gender Male, age 6 weeks
# PROTOCOL CONDITIONS: in vivo, po, 1000 mg/kg, 6 h, tissue Blood, route gavage, dose level High
EXPERIMENTAL READOUT: WBC (x10_2/uL)

>  <COMPOUND>
CN/C(=N/CCSCc1nc[nH]c1C)NC#N [CIMETIDINE]

>  <EXPERIMENTAL READOUT>
WBC

>  <U>
x10_2/uL

>  <TEST VALUE>
100.8

$$$$
>  <COMPOUND>
O=C(OC[C@H]1O[C@@H](OC(=O)c2cc(O)c(O)c(OC(=O)c3cc(O)c(O)c(O)c3)c2)[C@H](OC(=O)c2cc(O)c(O)c(OC(=O)c3cc(O)c(O)c(O)c3)c2)[C@@H](OC(=O)c2cc(O)c(O)c(OC(=O)c3cc(O)c(O)c(O)c3)c2)[C@@H]1OC(=O)c1cc(O)c(O)c(OC(=O)c2cc(O)c(O)c(O)c2)c1)c1cc(O)c(O)c(OC(=O)c2cc(O)c(O)c(O)c2)c1 [TANNIC ACID]

>  <EXPERIMENTAL READOUT>
WBC

>  <U>
x10_2/uL

>  <TEST VALUE>
101

$$$$
>  <COMPOUND>
COC(=O)C1=C(C)NC(C)=C(C(=O)OC)C1c1ccccc1[N+](=O)[O-] [NIFEDIPINE]

>  <EXPERIMENTAL READOUT>
WBC

>  <U>
x10_2/uL

>  <TEST VALUE>
92.1

$$$$
>  <COMPOUND>
CNC(=C[N+](=O)[O-])NCCSCc1ccc(CN(C)C)o1 [RANITIDINE]

>  <EXPERIMENTAL READOUT>
WBC

>  <U>
x10_2/uL

>  <TEST VALUE>
88.7

$$$$
>  <COMPOUND>
Cc1nnc2n1-c1ccc(Cl)cc1C(c1ccccc1Cl)=NC2 [TRIAZOLAM]

>  <EXPERIMENTAL READOUT>
WBC

>  <U>
x10_2/uL

>  <TEST VALUE>
87.5

$$$$

###

# Species on record: Rattus norvegicus
# RUN DESCRIPTION: Open TG-GATES - Regimen: Daily Repeat
# Type: toxicity, organism-based, Sprague-Dawley
# Design: regimen Daily Repeat, gender Male, age 6 weeks
# PROTOCOL CONDITIONS: in vivo, po, 300 mg/kg, […], tissue Plasma, route gavage, dose level Middle, time 28 day
EXPERIMENTAL READOUT: IP (mg/dL)

>  <CPD SMILES>
CNC(=C[N+](=O)[O-])NCCSCc1ccc(CN(C)C)o1

>  <U>
mg/dL

>  <TEST VALUE>
6.9

$$$$
>  <CPD SMILES>
CCOc1ccc(NC(C)=O)cc1

>  <U>
mg/dL

>  <TEST VALUE>
5.9

$$$$
>  <CPD SMILES>
COC(=O)C1=C(C)NC(C)=C(C(=O)OC)C1c1ccccc1[N+](=O)[O-]

>  <U>
mg/dL

>  <TEST VALUE>
5.7

$$$$
>  <CPD SMILES>
CN/C(=N/CCSCc1nc[nH]c1C)NC#N

>  <U>
mg/dL

>  <TEST VALUE>
6.7

$$$$
>  <CPD SMILES>
Cc1nnc2n1-c1ccc(Cl)cc1C(c1ccccc1Cl)=NC2

>  <U>
mg/dL

>  <TEST VALUE>
6.2

$$$$
>  <CPD SMILES>
O=C(OC[C@H]1O[C@@H](OC(=O)c2cc(O)c(O)c(OC(=O)c3cc(O)c(O)c(O)c3)c2)[C@H](OC(=O)c2cc(O)c(O)c(OC(=O)c3cc(O)c(O)c(O)c3)c2)[C@@H](OC(=O)c2cc(O)c(O)c(OC(=O)c3cc(O)c(O)c(O)c3)c2)[C@@H]1OC(=O)c1cc(O)c(O)c(OC(=O)c2cc(O)c(O)c(O)c2)c1)c1cc(O)c(O)c(OC(=O)c2cc(O)c(O)c(O)c2)c1

>  <U>
mg/dL

>  <TEST VALUE>
7.9

$$$$
